Listing: MIC, Candida albicans Y-01-19 of selected molecules
- System: Candida
- protocol.description: In vitro MIC, NCCLS M27A, Candida species
- Type: cell-based
- Set-up: unit not given beside the values
- study.conditions: Candida albicans strain Y-01-19
Provide a numeric answer; units are not to be included.

Quick one: MIC, Candida albicans Y-01-19 of O=c1n(-c2ccc(N3CCN(c4cccc(C(F)(F)F)c4)CC3)cc2)cnn1CC(O)(Cn1cncn1)c1ccc(F)cc1F (stereo not shown) ?
0.25

Also CCc1ccccc1N1CCN(c2ccc(-n3c(C)nn([C@H](C)[C@@](O)(Cn4cncn4)c4ccc(F)cc4F)c3=O)cc2)CC1 , if possible.
4.00

***
Quick one: MIC, Candida albicans Y-01-19 of O=c1n(-c2ccc(N3CCN(c4ccc(F)cc4F)CC3)cc2)cnn1CC(O)(Cn1cncn1)c1ccc(F)cc1F (stereo not shown) ?
0.12

Also COc1ccc(N2CCN(c3ccc(-n4cnn([C@H](C)[C@](O)(Cn5cncn5)c5ccc(F)cc5F)c4=O)cc3)CC2)cc1 , if possible.
0.25

###

Listing: melting point of selected compounds

A selection of reference data follows.
Quick one: melting point of O=c1n(-c2ccc(N3CCN(c4cccc(Cl)c4)CC3)cc2)cnn1CC(O)(Cn1cncn1)c1ccc(F)cc1F (stereo not drawn) ?
177 to 178 °C

Also O=c1n(-c2ccc(N3CCN(c4ccc(F)cc4F)CC3)cc2)cnn1CC(O)(Cn1cncn1)c1ccc(F)cc1F (stereo not drawn) , if possible.
157 to 158 °C

Also Nc1ccc(N2CCN(c3ccc(-n4cnn(CC(O)(Cn5cncn5)c5ccc(F)cc5F)c4=O)cc3)CC2)c(N)c1 (stereo not drawn) , if possible.
215 to 222 °C

Also O=c1n(-c2ccc(N3CCN(c4ccc(F)cc4)CC3)cc2)cnn1CC(O)(Cn1cncn1)c1ccc(F)cc1F (stereo not drawn) , if possible.
173 to 177 °C

Also Cc1ccc(N2CCN(c3ccc(-n4cnn(CC(O)(Cn5cncn5)c5ccc(F)cc5F)c4=O)cc3)CC2)cc1C (stereo not drawn) , if possible.
136 to 137 °C

Also O=c1n(-c2ccc(N3CCN(c4ccc([N+](=O)[O-])cc4[N+](=O)[O-])CC3)cc2)cnn1CC(O)(Cn1cncn1)c1ccc(F)cc1F (stereo not drawn) , if possible.
120 to 123 °C

Also O=c1n(-c2ccc(N3CCN(c4ccc(Cl)cc4Cl)CC3)cc2)cnn1CC(O)(Cn1cncn1)c1ccc(F)cc1F (stereo not drawn) , if possible.
97 to 99 °C

Also O=c1n(-c2ccc(N3CCN(c4ccc(Cl)c(Cl)c4)CC3)cc2)cnn1CC(O)(Cn1cncn1)c1ccc(F)cc1F (stereo not drawn) , if possible.
194 to 196 °C

Also O=c1n(-c2ccc(N3CCN(c4cc(Cl)cc(Cl)c4)CC3)cc2)cnn1CC(O)(Cn1cncn1)c1ccc(F)cc1F (stereo not drawn) , if possible.
222 to 225 °C

Also O=c1n(-c2ccc(N3CCN(c4ccc(F)c(F)c4F)CC3)cc2)cnn1CC(O)(Cn1cncn1)c1ccc(F)cc1F (stereo not drawn) , if possible.
186 to 187 °C

***
Quick one: melting point of O=c1n(-c2ccc(N3CCN(c4ccccc4F)CC3)cc2)cnn1CC(O)(Cn1cncn1)c1ccc(F)cc1F (stereo not drawn) ?
74 to 76 °C

Also Cc1ccc(N2CCN(c3ccc(-n4cnn(CC(O)(Cn5cncn5)c5ccc(F)cc5F)c4=O)cc3)CC2)c(C)c1 (stereo not drawn) , if possible.
76 to 77 °C

Also O=c1n(-c2ccc(N3CCN(c4ccc(O)cc4)CC3)cc2)cnn1CC(O)(Cn1cncn1)c1ccc(F)cc1F (stereo not drawn) , if possible.
246 to 248 °C

Also O=c1n(-c2ccc(N3CCN(c4ccc(Cl)cc4)CC3)cc2)cnn1CC(O)(Cn1cncn1)c1ccc(F)cc1F (stereo not drawn) , if possible.
207 to 208 °C

Also Cc1ccc(Cl)cc1N1CCN(c2ccc(-n3cnn(CC(O)(Cn4cncn4)c4ccc(F)cc4F)c3=O)cc2)CC1 (stereo not drawn) , if possible.
82 to 87 °C

###

Listing: MIC, Candida albicans Y-01-19 of selected compounds
- System: Candida
- protocol.description: In vitro MIC, NCCLS M27A, Candida species
- Assay type: cell-based
- Set-up: unit not given beside the values
- study.conditions: Candida albicans strain Y-01-19
Provide a numeric answer; units are not to be included.

A selection of reference data follows.
Quick one: MIC, Candida albicans Y-01-19 of C[C@@H](n1ncn(-c2ccc(N3CCN(c4ccc(F)cc4)CC3)cc2)c1=O)[C@@](O)(Cn1cncn1)c1ccc(F)cc1F ?
8.00

Also Cc1nn([C@H](C)[C@](O)(Cn2cncn2)c2ccc(F)cc2F)c(=O)n1-c1ccc(N2CCN(c3ccc(Cl)cc3Cl)CC2)cc1 , if possible.
0.13

***
Quick one: MIC, Candida albicans Y-01-19 of C[C@@H](n1ncn(-c2ccc(N3CCN(c4cccc(C(F)(F)F)c4)CC3)cc2)c1=O)[C@@](O)(Cn1cncn1)c1ccc(F)cc1F ?
1.00

Also O=c1n(-c2ccc(N3CCN(c4ccc(O)cc4)CC3)cc2)cnn1CC(O)(Cn1cncn1)c1ccc(F)cc1F (centres unmarked) , if possible.
1.56

Also C[C@@H](n1ncn(-c2ccc(N3CCN(c4ccc(Cl)c(Cl)c4)CC3)cc2)c1=O)[C@](O)(Cn1cncn1)c1ccc(F)cc1F , if possible.
0.12

Also O=c1n(-c2ccc(N3CCN(c4ccc(Cl)c(Cl)c4)CC3)cc2)cnn1CC(O)(Cn1cncn1)c1ccc(F)cc1F (centres unmarked) , if possible.
0.06

Also Cc1ccc(N2CCN(c3ccc(-n4cnn([C@H](C)[C@@](O)(Cn5cncn5)c5ccc(F)cc5F)c4=O)cc3)CC2)c(C)c1 , if possible.
2.00

Also Cc1nn(CC(O)(Cn2cncn2)c2ccc(F)cc2F)c(=O)n1-c1ccc(N2CCN(c3ccc(Cl)cc3)CC2)cc1 (centres unmarked) , if possible.
0.40

###

- System: Histoplasma capsulatum
- Type: cell-based
Listing: MIC, H. capsulatum of selected compounds
Quick reminder: number only, in µg/mL, skip the unit.

Quick one: MIC, H. capsulatum of Cc1nn([C@H](C)[C@@](O)(Cn2cncn2)c2ccc(F)cc2F)c(=O)n1-c1ccc(N2CCN(c3ccc(Cl)cc3Cl)CC2)cc1 ?
0.12

Also COc1ccc(N2CCN(c3ccc(-n4cnn([C@H](C)[C@@](O)(Cn5cncn5)c5ccc(F)cc5F)c4=O)cc3)CC2)cc1 , if possible.
0.12

Also C[C@@H](n1ncn(-c2ccc(N3CCN(c4ccc(F)c(Cl)c4)CC3)cc2)c1=O)[C@@](O)(Cn1cncn1)c1ccc(F)cc1F , if possible.
0.5

Also COc1ccccc1N1CCN(c2ccc(-n3c(C)nn(CC(O)(Cn4cncn4)c4ccc(F)cc4F)c3=O)cc2)CC1 (centres unmarked) , if possible.
0.2

Also CCc1ccccc1N1CCN(c2ccc(-n3c(C)nn([C@H](C)[C@](O)(Cn4cncn4)c4ccc(F)cc4F)c3=O)cc2)CC1 , if possible.
0.06

***
Quick one: MIC, H. capsulatum of Cc1ccc(N2CCN(c3ccc(-n4cnn([C@H](C)[C@@](O)(Cn5cncn5)c5ccc(F)cc5F)c4=O)cc3)CC2)cc1C ?
0.25

###

Listing: MIC, Candida albicans Y-01-19 of selected molecules
- System: Candida
- protocol.description: In vitro MIC, NCCLS M27A, Candida species
- Assay type: cell-based
- Design: unit not given beside the values
- study.conditions: Candida albicans strain Y-01-19

A selection of reference data follows.
Quick one: MIC, Candida albicans Y-01-19 of C[C@@H](n1ncn(-c2ccc(N3CCN(c4ccc([N+](=O)[O-])cc4[N+](=O)[O-])CC3)cc2)c1=O)[C@@](O)(Cn1cncn1)c1ccc(F)cc1F [Compound 4] ?
>16

Also Cc1ccc(N2CCN(c3ccc(-n4cnn(CC(O)(Cn5cncn5)c5ccc(F)cc5F)c4=O)cc3)CC2)cc1 (stereo not drawn) [Compound 39] , if possible.
0.02

Consider now this further molecule.
Quick one: MIC, Candida albicans Y-01-19 of Nc1ccc(N2CCN(c3ccc(-n4cnn(CC(O)(Cn5cncn5)c5ccc(F)cc5F)c4=O)cc3)CC2)c(N)c1 (stereo not drawn) [Compound 38] ?
>16

###

Listing: MIC, Candida albicans Y-01-19 of selected molecules
- Tested on: Candida
- protocol.description: In vitro MIC, NCCLS M27A, Candida species
- Format: cell-based
- Set-up: unit not given beside the values
- study.conditions: Candida albicans strain Y-01-19

A selection of reference data follows.
Quick one: MIC, Candida albicans Y-01-19 of C[C@@H](n1ncn(-c2ccc(N3CCN(c4ccc(Cl)cc4)CC3)cc2)c1=O)[C@](O)(Cn1cncn1)c1ccc(F)cc1F ?
0.12

Also COc1ccc(N2CCN(c3ccc(-n4cnn(CC(O)(Cn5cncn5)c5ccc(F)cc5F)c4=O)cc3)CC2)cc1 (stereo not drawn) , if possible.
0.10

Also COc1ccc(F)cc1N1CCN(c2ccc(-n3cnn(CC(O)(Cn4cncn4)c4ccc(F)cc4F)c3=O)cc2)CC1 (stereo not drawn) , if possible.
0.50

***
Quick one: MIC, Candida albicans Y-01-19 of Cc1nn([C@H](C)[C@@](O)(Cn2cncn2)c2ccc(F)cc2F)c(=O)n1-c1ccc(N2CCN(c3ccc(Cl)cc3Cl)CC2)cc1 ?
1.00

Also C[C@@H](n1ncn(-c2ccc(N3CCN(c4ccc(Cl)c(Cl)c4)CC3)cc2)c1=O)[C@@](O)(Cn1cncn1)c1ccc(F)cc1F , if possible.
>16

Also C[C@@H](n1ncn(-c2ccc(N3CCN(c4ccccc4)CC3)cc2)c1=O)[C@](O)(Cn1cncn1)c1ccc(F)cc1F , if possible.
0.12

Source of measurements: patent US6670363B1
